Here we list compounds with their recorded GI50 when tested on NALM6.
Please give a number only; it is taken to be in µM.

# compound, quantity unit, GI50
rows = [
    ("COc1cccc2c1C(=O)c1c(O)c3c(c(O)c1C2=O)C[C@@](O)(C(=O)CO)C[C@@H]3O[C@H]1C[C@H](N)[C@H](O)[C@H](C)O1 [Adr., Adriamycin, reference compound]", "µM", 0.002),
    ("CC(=O)CC1OC(C(C)C(O)C(C)C(O)C(C)C=CC=C(C)C(N)=O)C(C)C1O (centres unmarked) [Compound 7, salinifuran A]", "µM", 26.8),
    ("CC1=CC=CC(C)C(O)C(C)C(O)C(C)C(O)C(C)C(O)C=COC2(C)Oc3c(C)cc4c(O)c(cc(OC(=O)CO)c4c3C2=O)NC1=O (centres unmarked) [Compound 6]", "µM", 4.76),
]

Okay, next one:
q: Entry CC(=CC1C(=O)OC(C(C)C(O)C(C)C(O)C(C)C=CC=C(C)C(=O)NC2=CC(=O)c3cc(O)c(C)c(O)c3C2=O)C(C)C1O)C(=O)O (centres unmarked) [Compound 1, salinisporamycin C] has what GI50?
a: 4.28

###

This document collects GI50 values reported for K562.
Note: unit µM is implicit; provide only the numeric part.

Guide cases for GI50, answers given:
# molecule, GI50 [µM]
data = [
    ("CC(=CC1C(=O)OC(C(C)C(O)C(C)C(O)C(C)C=CC=C(C)C(=O)NC2=CC(=O)c3cc(O)c(C)c(O)c3C2=O)C(C)C1O)C(=O)O (centres unmarked) [Compound 1, salinisporamycin C]", 7.17),
    ("COc1cccc2c1C(=O)c1c(O)c3c(c(O)c1C2=O)C[C@@](O)(C(=O)CO)C[C@@H]3O[C@H]1C[C@H](N)[C@H](O)[C@H](C)O1 [Adr., Adriamycin, reference compound]", 0.057),
]

q: # GI50 lookup, item CC1=CC=CC(C)C(O)C(C)C(O)C(C)C(O)C(C)C(O)C=COC2(C)Oc3c(C)cc4c(O)c(cc(OC(=O)CO)c4c3C2=O)NC1=O (centres unmarked) [Compound 6]
a: 9.53

###

Consider the following GI50 values measured on RPMI-8402.
Note: unit µM is implicit; provide only the numeric part.

Worked set:
# compound, result number
rows = [
    ("COc1cccc2c1C(=O)c1c(O)c3c(c(O)c1C2=O)C[C@@](O)(C(=O)CO)C[C@@H]3O[C@H]1C[C@H](N)[C@H](O)[C@H](C)O1 [Adr., Adriamycin, reference compound]", 0.014),
    ("CC1=CC=CC(C)C(O)C(C)C(O)C(C)C(O)C(C)C(O)C=COC2(C)Oc3c(C)cc4c(O)c(cc(OC(=O)CO)c4c3C2=O)NC1=O (centres unmarked)", 2.45),
]

Consider the additional compound presented here.
q: # value lookup — system RPMI-8402, readout GI50, item CC(=CC1C(=O)OC(C(C)C(O)C(C)C(O)C(C)C=CC=C(C)C(=O)NC2=CC(=O)c3cc(O)c(C)c(O)c3C2=O)C(C)C1O)C(=O)O (centres unmarked)
a: 4.75
